Data credit: ChEMBL document CHEMBL1131141

# SI listing for each entry below
- Test system: Human immunodeficiency virus 1
- experiment summary: Selectivity index was measured as the ratio of CC50(HIV-1) to that of EC50(HIV-1); SI Selectivity Index
- Assay type: functional
readout kind: SI

>>> result("CN1C(=O)N(Cc2ccc(Cl)cc2)S(=O)(=O)c2cscc21")
"<1"
>>> result("CCN1C(=O)N(Cc2ccc(Cl)cc2)S(=O)(=O)c2cscc21")
"<1"
>>> result("N#CCN1C(=O)N(Cc2cccnc2)S(=O)(=O)c2cscc21")
">750"
>>> result("CCN1C(=O)N(Cc2ccccc2)S(=O)(=O)c2ccsc21")
18
>>> result("CN1C(=O)N(Cc2c(Cl)cccc2Cl)S(=O)(=O)c2cscc21")
"<1"
>>> result("O=C1N(Cc2ccccc2)c2cc(Cl)sc2S(=O)(=O)N1Cc1ccccc1")
">26"
>>> result("C#CCN1C(=O)N(Cc2ccccc2)S(=O)(=O)c2cscc21")
">376"
>>> result("O=C1N(Cc2ccccc2)c2cscc2S(=O)(=O)N1Cc1ccccc1")
">296"
>>> result("N#CCN1C(=O)N(Cc2ccccc2)S(=O)(=O)c2ccsc21")
73
>>> result("N#CCN1C(=O)N(Cc2ccccn2)S(=O)(=O)c2cscc21")
">340"
>>> result("CCN1C(=O)N(Cc2ccccc2)S(=O)(=O)c2nn(C)cc21")
"<1"

* * *

# pEC50 listing for each entry below
- Tested on: MT4
- experiment summary: Dose required to achieve 50% protection of MT-4 cells from HIV-1(IIIB) induced cytopathogenicity, determined by […] method.
- Assay type: functional, cell-based
- condition summary: Homo sapiens
pEC50: −log10 of the molar value.
readout kind: pEC50

>>> result("CCN1C(=O)N(Cc2ccccc2)S(=O)(=O)c2nn(C)cc21")
"< 3.49"
>>> result("CN1C(=O)N(Cc2ccccc2)S(=O)(=O)c2ccsc21")
"< 3.09"
>>> result("CCCN1C(=O)N(Cc2ccccc2)S(=O)(=O)c2ccsc21")
"< 3.39"

* * *

- Tested on: Human immunodeficiency virus 1
- experiment summary: Selectivity index was measured as the ratio of CC50(HIV-1) to that of EC50(HIV-1); SI Selectivity Index
- Type: functional
# SI listing for each entry below
readout kind: SI

>>> numeric_result("O=C1N(Cc2ccc(Cl)cc2)c2cscc2S(=O)(=O)N1Cc1ccccc1")
13
>>> numeric_result("N#CCN1C(=O)N(Cc2cc(F)cc(F)c2)S(=O)(=O)c2cscc21")
340
>>> numeric_result("CCOC(=O)CN1C(=O)N(Cc2ccccc2)S(=O)(=O)c2cscc21")
18

* * *

- Tested on: MT4
- experiment summary: Dose required to achieve 50% protection of MT-4 cells from HIV-1(IIIB) induced cytopathogenicity, determined by […] method.
- Type: functional, cell-based
- condition summary: Homo sapiens
pEC50: −log10 of the molar value.
# pEC50 listing for each entry below
readout kind: pEC50

>>> numeric_result("N#CCN1C(=O)N(Cc2ccccc2)S(=O)(=O)c2cscc21")
6.05
>>> numeric_result("O=C1N(Cc2cccc(Cl)c2)c2cscc2S(=O)(=O)N1Cc1ccccc1")
6.10
>>> numeric_result("C#CCN1C(=O)N(Cc2ccccc2)S(=O)(=O)c2cscc21")
6.00
>>> numeric_result("O=C1N(Cc2ccc(Cl)cc2)c2cscc2S(=O)(=O)N1Cc1ccccc1")
5.85

* * *

# SI listing for each entry below
- Tested on: Human immunodeficiency virus 1
- experiment summary: Selectivity index was measured as the ratio of CC50(HIV-1) to that of EC50(HIV-1); SI Selectivity Index
- Type: functional
readout kind: SI

>>> result("CN1C(=O)N(Cc2cccc(Cl)c2)S(=O)(=O)c2cscc21")
">96"
>>> result("O=C1N(Cc2ccccc2)c2sccc2S(=O)(=O)N1Cc1ccccc1")
">78"
>>> result("CCN1C(=O)N(Cc2ccccc2)S(=O)(=O)c2cscc21")
">310"
>>> result("CCN1C(=O)N(Cc2c(Cl)cccc2Cl)S(=O)(=O)c2cscc21")
"<1"
